The measurements presented in this section are drawn from the supplement of paper PMC10567573.

B1: VPS39 (parent)
chain: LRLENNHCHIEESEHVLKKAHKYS

# Variants of: B1
# RUN_DESCRIPTION: protein stability index of a GFP-peptide fusion (GPS, HEK-293T) (PSI 1-6); higher = more stable;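 also: lentivirally expressed fusions sorted by FACS into six bins by GFP to DsRed ratio, PSI derived from sequencing read proportions per bin multiplied by bin number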
# ASSAY_CONTEXT: c terminus: a fixed tail appended
ENDPOINT: protein stability index
// return a plain number; no unit text

Worked examples, 5 variants total:
Need protein stability index, item LRLENNHCHIEESEHVRKKAHKYS [L17R] 2.8

Given the entry LRLENNHCGIEESEHVLKKAHKYS [H9G] , report its measured protein stability index. 2.7

Recorded protein stability index for LRLTNNHCHIEESEHVLKKAHKYS [E4T] , please? 2.56

May I ask what protein stability index has been recorded for LRLENNHCHIEESIHVLKKAHKYS [E14I] ? 1.88

Which value of protein stability index has been reported for LRLENNHCLIEESEHVLKKAHKYS [H9L] in the records? 1.84

***
Data request, read-out protein stability index, for LRYENNHCHIEESEHVLKKAHKYS [L3Y] 2.56

Report protein stability index for LRLENNHCHIEESEHVLKKAHAYS [K22A] please. 2.48

Record request: protein stability index value, item FRLENNHCHIEESEHVLKKAHKYS [L1F] 2.3

Would you mind telling me what protein stability index value was observed for LRLENNHCHIEESEHKLKKAHKYS [V16K] ? 2.49

Dear colleague, I am looking for the recorded protein stability index of the following variant: LRLEANHCHIEESEHVLKKAHKYS [N5A] 2.23

So what's the measured protein stability index for this one? LRLENNHCFIEESEHVLKKAHKYS [H9F] 1.92
